target: SARS-CoV-2 spike S2 protein (SARS-CoV-2, UniProt P0DTC2 686-1213)

binder	units.label	kon
AB-009263 (antibody, V domains shown) VH: EVQLVQSGAEVKKPGESLRISCQSSGYSFSTYWIAWVRQTPEKGLEWMGIIYPGDSDTRYSPTFQGQVTISADTSISTAYLQWSSLKASDTAVYYCARFRFNWLLSYYYYYMDVWGKGTTVSVSS VL: QSALTQPDSVSGSPGQSIAISCTGTSRDVGGYNYVSWYQQHPGKAPKLMIYEVSNRPSGVSDRFSGSKSDNTASLTISGLQGDDEANYYCSSYTDSGTLVFGGGTKVTVL	M⁻¹ s⁻¹	9980
AB-009106 (antibody, V domains shown) VH: QVQLAQSGAEVKRPGASVKVSCKASGFDLTTYGVGWVRQAPGQGLEWMGWISGSSGDTHYAQQFQDRVTMTTDTPTSTAYMELRSLRSDDTAVYYCVRENIAHYGSRTFLVRYYRGMDVWGQGTTVTVAS VL: QSALTQPASVSGSPGQSITITCTGSSSDIGGFDFVSWYQQYPGKAPKLVISEVTNRPSGVSIRFSGSKSGNTASLTISGLQAEDEADYYCSSYASSYPTTNTRVFGTGTKVTVL	M⁻¹ s⁻¹	6370
AB-009306 (antibody, V domains shown) VH: QVQLVQSGAEVKKPGASVKVPCKASGYTFTSYQMHWVRRAPGQGLEWMGLIDPDTGGTRYTQNFQGRVTMTRDTSTTTVYMELNSLTSGDTAVYYCARGGRVGATYPYNMDVWGKGTTVTVSS VL: SYELTQPPSVSVSPGQTARITCSGDALPKKYAYWYQQKSGQAPVLVIYEDSKRPSGIPERFSGSSSGTMATLTISGAQVEDDSDYYCFSTDSSGNHGVFGGGTRLTVL	M⁻¹ s⁻¹	1110
